method: Intrinsic clearance in mouse liver microsomes at 1 uM after 5 mins by LC/MS/MS analysis
Format: ADME, Microsome
cond: read-out: CLH
Listing of recorded microsomal CLint at 1 µM by entry.

record smiles | unit descriptor | microsomal CLint at 1 µM
O=c1[nH]c(-c2cccc(NS(=O)(=O)c3cccs3)c2)cs1 | µL/min/mg | 120
O=C(Nc1cc(NS(=O)(=O)c2cccs2)cc(-c2csc(=O)[nH]2)c1)c1cccs1 | µL/min/mg | 52

Source of measurements: ChEMBL document CHEMBL2346589
